Target: T1, monkey CD22 on HEK293T-monkey CD22 cells (monkey)
T1 construct: full-length entry expressed on stably transfected HEK293T cells
T1 chain: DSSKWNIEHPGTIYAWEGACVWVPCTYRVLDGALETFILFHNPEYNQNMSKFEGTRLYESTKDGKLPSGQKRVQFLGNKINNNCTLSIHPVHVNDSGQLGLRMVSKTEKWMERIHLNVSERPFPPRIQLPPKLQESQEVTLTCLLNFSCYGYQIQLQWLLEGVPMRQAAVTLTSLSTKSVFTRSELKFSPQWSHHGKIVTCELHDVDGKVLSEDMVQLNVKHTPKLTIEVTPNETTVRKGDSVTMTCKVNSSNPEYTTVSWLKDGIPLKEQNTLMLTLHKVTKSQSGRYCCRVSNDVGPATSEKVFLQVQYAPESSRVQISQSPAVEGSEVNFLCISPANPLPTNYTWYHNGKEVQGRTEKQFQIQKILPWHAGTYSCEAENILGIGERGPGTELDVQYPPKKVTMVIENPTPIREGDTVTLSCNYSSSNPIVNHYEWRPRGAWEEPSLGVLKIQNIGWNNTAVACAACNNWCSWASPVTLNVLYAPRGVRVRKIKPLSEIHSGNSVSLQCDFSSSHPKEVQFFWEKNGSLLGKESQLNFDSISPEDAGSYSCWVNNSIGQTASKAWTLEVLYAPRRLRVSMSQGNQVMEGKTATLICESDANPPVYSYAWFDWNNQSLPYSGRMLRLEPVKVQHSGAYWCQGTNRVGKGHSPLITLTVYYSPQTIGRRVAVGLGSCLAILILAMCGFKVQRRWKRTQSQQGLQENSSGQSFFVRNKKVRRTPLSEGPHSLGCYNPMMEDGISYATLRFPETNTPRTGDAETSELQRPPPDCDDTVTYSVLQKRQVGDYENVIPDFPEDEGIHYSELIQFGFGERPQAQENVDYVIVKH
Assay: FACS, HEK293T-monkey CD22 cells
measurement-name: Maximum mean fluorescence intensity (MFI)
State just the number; it will be interpreted in MFI.

Guide cases for Maximum mean fluorescence intensity, answers given:
binder	Maximum mean fluorescence intensity [MFI]
F2.180.16 (antibody, human IgG1, lambda, V domains shown, human-murine chimeric IgG1 lambda) VH: EVKLVESGGGLVLPGGSLKISCAASGFTFSDYYMYWIRQTPDKRLEWVAYISNTGYSTFYPDSVKGRFTVSRDNAKNTLYLQMSRLQSEDTAMYYCARHGILYAMDYWGQGTSVTVSS VL: QPVLTQSSSASFSLGASAKLTCTLSSQYSTYTIGWYQQQPLKPPKYVMELKHDGSRHTGDGIPDRFSGSSSGADRYLSISNIQPEDEATYICGVGDTIKEQFMYVFGGGTKVTVLG	69
F2.205.9 (antibody, human IgG1, lambda, V domains shown, human-murine chimeric IgG1 lambda; VL name legible) VH: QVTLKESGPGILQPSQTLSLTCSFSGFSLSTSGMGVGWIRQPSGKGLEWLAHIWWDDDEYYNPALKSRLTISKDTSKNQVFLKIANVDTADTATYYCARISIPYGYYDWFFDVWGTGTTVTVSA VL: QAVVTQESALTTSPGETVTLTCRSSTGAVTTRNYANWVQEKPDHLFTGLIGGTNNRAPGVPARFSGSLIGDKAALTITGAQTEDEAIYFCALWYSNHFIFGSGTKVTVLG	25400
F2.104.10 (antibody, human IgG1, lambda, V domains shown, human-murine chimeric IgG1 lambda) VH: EVQLVESGGGFVKPGGSLKLSCAASGFTFSDYGMNWFRQAPEKGLEWVAYISRGSHTIYYADTVKGRFTISRDNAENTLFLQMTSLRSNDTAMYYCVRMAGYYAMDYWGQGTSLTVSS VL: QLVLTQSSSASFSLGASAKLTCTLSSQHSSYIIEWYQQQPLKPPKYVMEVKKDGSHSTGDGIPDRFSGSSSGADRYLSISNIQSEDEAIYICGVGDTIKEQFVYVFGGGTKVTVLG	251
F2.151.13 (antibody, human IgG1, lambda, V domains shown, human-murine chimeric IgG1 lambda) VH: QVHLQQPGTELMKPGASVKLSCKATGYTFRDYWLEWVKQRPGHGLEWIGEILPGSGNAYYNEKFKGKATFTADTSSNTAYMQLSSLTTEDSAIYYCARVYSNWYFDAWGKGTTVTVSS VL: QAVVTQESALTTSPGETVTLTCRSSTGAVTTSNYANWVQEKPDHLFTGLIGGTNNQAPGVPARFSGSLIGDKAALTISGAQTEDEAIYFCALWFSNHWVFGGGTKLTVLG	30500

Now examine the next entry.
Please look up its Maximum mean fluorescence intensity: F2.55.1 (antibody, human IgG1, lambda, V domains shown, human-murine chimeric IgG1 lambda; VL name legible) VH: QVTLKESGPGILQPSQTLSLTCSFSGFSLSTFPLGVGWIRQPSGKGLEWLAHVWWNDDDYYNPALKSRLTISKDTSNTRVFLSVASVDTAETATYYCARLNWDRWYFDVWGTGTTVTVSS VL: QLVLTQSSSASFSLGASAKLTCTLSSQHSAYTVEWYQQQPLKPPKYVMELKKDGSHSTGDGIPDRFSGSSSGADRYLSISNIQPEDEAIYICGVGDTVKEQFVFGGGTKVTVLG 5760

Reference for the values: patent US20240084003A1
